FYI, the data here is from patent US20250288561A1.

Assay: Phase 1 open-label study: plasma PK of single inhaled nezulcitinib doses under supplemental oxygenation scenarios
Assay type: in vivo, human
Conditions: human, plasma, inhaled, 3 mg, Administration D1: single 3 mg, oral inhalation, high-flow nasal cannula oxygen 50 L/min; plasma; arithmetic mean; read-out: Vz/F
readout: Vd/F (L)
# number only, unit L dropped from output

Query :: Look up and state reported Vd/F for CCc1cc(O)ccc1-c1ccc2c(-c3nc4c([nH]3)CN(C(C)C)[C@H](C(=O)N3CC(N(C)C)C3)C4)n[nH]c2c1 [Compound 1]
Result :: 1780

---

Assay: Phase 1 open-label study: plasma PK of single inhaled nezulcitinib doses under supplemental oxygenation scenarios
Type: in vivo, human
Conditions: human, plasma, inhaled, 3 mg, Administration B: single 3 mg, oral inhalation, low-flow nasal cannula oxygen 6 L/min; plasma; arithmetic mean; read-out: Vz/F
readout: Vd/F (L)
# number only, unit L dropped from output

Query :: Look up and state reported Vd/F for CCc1cc(O)ccc1-c1ccc2c(-c3nc4c([nH]3)CN(C(C)C)[C@H](C(=O)N3CC(N(C)C)C3)C4)n[nH]c2c1
Result :: 1770
